Tested target: MSI2 F66A (Homo sapiens, UniProt Q96DH6 1-328, F66A)
Sequence (Q96DH6 whole entry F66A): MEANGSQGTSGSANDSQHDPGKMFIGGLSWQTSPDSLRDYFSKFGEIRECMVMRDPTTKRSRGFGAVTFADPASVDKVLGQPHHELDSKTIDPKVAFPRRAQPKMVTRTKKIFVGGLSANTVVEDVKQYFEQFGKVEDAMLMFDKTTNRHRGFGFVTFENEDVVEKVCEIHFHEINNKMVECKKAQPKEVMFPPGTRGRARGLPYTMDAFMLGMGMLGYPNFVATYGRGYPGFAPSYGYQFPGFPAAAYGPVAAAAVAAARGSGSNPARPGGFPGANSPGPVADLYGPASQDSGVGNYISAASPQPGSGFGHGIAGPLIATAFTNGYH
Experimental details: MST; MST: 50 mM HEPES, 100 mM NaCl, 0.05% Tween-20, pH 7.4, RT; EMSA: 10 mM HEPES, 20 mM KCl (+10 mM KCl), 1 mM MgCl2, 1 mM DTT, 5% glycerol, 100 ug/mL tRNA, 40 nM RNA, RT
Run conditions: protein: recombinant; tags: GST, Flag; single strand
Measurement label: Kd
Mention the unit after the number when you answer.

// query Kd value for entry GUAGUAGUAGUAGUA (ssRNA) [15-nt MSI RNA oligo] 6.2 nM

Ref: paper PMC6584500
